Listed here are binders together with their documented pStat3 HTRF IC50.
Biological target: T1, IL-23R on DB cells (human, UniProt Q5VWK5 24-629)
T1 sequence (looked up): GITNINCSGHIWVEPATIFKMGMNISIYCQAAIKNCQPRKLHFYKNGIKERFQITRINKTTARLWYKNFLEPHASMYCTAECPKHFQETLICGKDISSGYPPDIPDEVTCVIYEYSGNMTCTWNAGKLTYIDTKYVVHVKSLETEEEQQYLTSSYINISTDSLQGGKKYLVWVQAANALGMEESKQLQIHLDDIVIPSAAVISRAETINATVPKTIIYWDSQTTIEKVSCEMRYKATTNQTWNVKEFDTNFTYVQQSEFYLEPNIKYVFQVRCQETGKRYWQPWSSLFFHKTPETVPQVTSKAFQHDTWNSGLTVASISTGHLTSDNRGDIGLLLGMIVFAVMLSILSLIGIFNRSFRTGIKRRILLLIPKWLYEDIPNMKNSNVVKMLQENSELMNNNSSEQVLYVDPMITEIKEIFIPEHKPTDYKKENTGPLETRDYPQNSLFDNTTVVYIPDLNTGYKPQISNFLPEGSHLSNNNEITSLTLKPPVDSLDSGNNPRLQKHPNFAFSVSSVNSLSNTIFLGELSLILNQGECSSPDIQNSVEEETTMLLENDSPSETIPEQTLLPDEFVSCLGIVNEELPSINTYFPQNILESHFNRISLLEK
Assay: cell-based or functional assay
Bridges are numbered along the chain shown (N, C = ends). [ ]: non-standard residue; d: D form. Phe(3,4-(OMe)2) = COc1ccc(C[C@H](N)C(=O)O)cc1OC; Phe(4-CONH2) = NC(=O)c1ccc(C[C@H](N)C(=O)O)cc1; 2Nal = N[C@@H](Cc1ccc2ccccc2c1)C(=O)O; AEF = NCCOc1ccc(C[C@H](N)C(=O)O)cc1; Pen = CC(C)(S)[C@H](N)C(=O)O; αMeK = C[C@](N)(CCCCN)C(=O)O; αMeV = CC(C)[C@](C)(N)C(=O)O; Dap = NC[C@H](N)C(=O)O; Aib = CC(C)(N)C(=O)O

Sample answers from the record:
BINDER | pStat3 HTRF IC50
Ac-E[Pen]QTWQ[Pen][AEF][2Nal][Aib]K(Ac)NN-NH2 (disulfide 2-7; SMILES CC(=O)NCCCC[C@H](NC(=O)C(C)(C)NC(=O)[C@H](Cc1ccc2ccccc2c1)NC(=O)[C@H](Cc1ccc(OCCN)cc1)NC(=O)[C@H]1NC(=O)[C@H](CCC(N)=O)NC(=O)[C@H](Cc2c[nH]c3ccccc23)NC(=O)[C@H]([C@@H](C)O)NC(=O)[C@H](CCC(N)=O)NC(=O)[C@@H](NC(=O)[C@H](CCC(=O)O)NC(C)=O)C(C)(C)SSC1(C)C)C(=O)N[C@@H](CC(N)=O)C(=O)N[C@@H](CC(N)=O)C(N)=O) [Ac-E-[Pen]-QTWQ-[Pen]-[Phe[4-(2-aminoethoxy)]-[2-Nal]-[Aib]-[Lys(Ac)]-NN-NH2] | < 10 nM
Ac-[Pen][Dap]TWQ[Pen][AEF][2Nal][αMeK]ENG-NH2 (disulfide 1-6 (inferred)) [Ac-[Pen]-[Dap]-TWQ-[Pen]-[Phe[4-(2-aminoethoxy)]-[2-Nal]-[α-MeLys]-ENG-NH2] | < 10 nM
XQTWQXFXLENA (Ac; Pen-Pen disulfide; Phe[4-(2-aminoethoxy)]; 2-Nal; hLeu; NH2) [Ac-[Pen]-QTWQ-[Pen]-[Phe[4-(2-aminoethoxy)]-[2-Nal]-[hLeu]-ENA-NH2] | 10 to 25 nM
XQTWQXFXKENA (Ac; Pen-Pen disulfide; Phe[4-(2-aminoethoxy)]; 2-Nal; α-MeLys; NH2) [Ac-[Pen]-QTWQ-[Pen]-[Phe[4-(2-aminoethoxy)]-[2-Nal]-[α-MeLys]-ENA-NH2] | < 10 nM
Ac-F[Pen]QTWQ[Pen][AEF][2Nal][Aib]K(Ac)NN-NH2 (disulfide 2-7; SMILES CC(=O)NCCCC[C@H](NC(=O)C(C)(C)NC(=O)[C@H](Cc1ccc2ccccc2c1)NC(=O)[C@H](Cc1ccc(OCCN)cc1)NC(=O)[C@H]1NC(=O)[C@H](CCC(N)=O)NC(=O)[C@H](Cc2c[nH]c3ccccc23)NC(=O)[C@H]([C@@H](C)O)NC(=O)[C@H](CCC(N)=O)NC(=O)[C@@H](NC(=O)[C@H](Cc2ccccc2)NC(C)=O)C(C)(C)SSC1(C)C)C(=O)N[C@@H](CC(N)=O)C(=O)N[C@@H](CC(N)=O)C(N)=O) [Ac-Phe-[Pen]-QTWQ-[Pen]-[Phe[4-(2-aminoethoxy)]-[2-Nal]-[Aib]-[Lys(Ac)]-NN-NH2] | < 10 nM

Query block: For the binder XNTWQXFXXKNQ (Ac; Pen-Pen disulfide; Phe[4-(2-aminoethoxy)]; 2-Nal; Aib; Lys(Ac); NH2) [Ac-[Pen]-NTWQ-[Pen]-[Phe[4-(2-aminoethoxy)]-[2-Nal]-[Aib]-[Lys(Ac)]-NQ-NH2] , give its reported pStat3 HTRF IC50.
Result block: < 10 nM

Query block: For the binder Ac-[Pen]STWQ[Pen][AEF][2Nal][αMeK]ENG-NH2 (disulfide 1-6 (inferred)) [Ac-[Pen]-STWQ-[Pen]-[Phe[4-(2-aminoethoxy)]-[2-Nal]-[α-MeLys]-ENG-NH2] , give its reported pStat3 HTRF IC50.
Result block: < 10 nM

Query block: For the binder XNTWQXFXLENA (Ac; Pen-Pen disulfide; Phe[4-(2-aminoethoxy)]; 2-Nal; hLeu; NH2) [Ac-[Pen]-NTWQ-[Pen]-[Phe[4-(2-aminoethoxy)]-[2-Nal]-[hLeu]-ENA-NH2] , give its reported pStat3 HTRF IC50.
Result block: < 10 nM

Query block: For the binder XQTWQXFXLKNN (Ac; Pen-Pen disulfide; Phe[4-(2-acetylaminoethoxy)]; 2-Nal; α-MeLeu; Lys(Ac); NH2) [Ac-[Pen]-QTWQ-[Pen]-[Phe[4-(2-acetylaminoethoxy)]-[2-Nal]-[α-MeLeu]-[Lys(Ac)]-NN-NH2] , give its reported pStat3 HTRF IC50.
Result block: < 10 nM

Query block: For the binder XQTWQXFXXKNN (Ac; Pen-Pen disulfide; Phe[4-(2-acetylaminoethoxy)]; 2-Nal; Aib; Lys(Ac); NH2) [Ac-[Pen]-QTWQ-[Pen]-[Phe[4-(2-acetylaminoethoxy)]-[2-Nal]-[Aib]-[Lys(Ac)]-NN-NH2] , give its reported pStat3 HTRF IC50.
Result block: < 10 nM

Query block: For the binder XXQTWQXFXXKNN (Ac; 2-Nal twice; Pen-Pen disulfide; Phe[4-(2-aminoethoxy)]; Aib; Lys(Ac); NH2) [Ac-[2-Nal]-[Pen]-QTWQ-[Pen]-[Phe[4-(2-aminoethoxy)]-[2-Nal]-[Aib]-[Lys(Ac)]-NN-NH2] , give its reported pStat3 HTRF IC50.
Result block: < 10 nM

Query block: For the binder XQTWQXFXXENN (Ac; Pen-Pen disulfide; Phe[4-(2-acetylaminoethoxy)]; 2-Nal; Aib; NH2) [Ac-[Pen]-QTWQ-[Pen]-[Phe[4-(2-acetylaminoethoxy)]-[2-Nal]-[Aib]-ENN-NH2] , give its reported pStat3 HTRF IC50.
Result block: < 10 nM

Query block: For the binder Ac-[Pen]QTWQ[Pen][Phe(4-CONH2)][Phe(3,4-(OMe)2)][αMeV]K(Ac)NN-NH2 (disulfide 1-6 (inferred)) [Ac-[Pen]-QTWQ[Pen]-[Phe(4-CONH2)]-[Phe(3,4-OMe2)]-[α-MeVal]-[Lys(Ac)]-NN-NH2] , give its reported pStat3 HTRF IC50.
Result block: 10 to 25 nM
